Target: Sodium-dependent serotonin transporter (Homo sapiens)
Experiment: Displacement of [3H]citalopram from human recombinant SERT expressed in HEK293 cells by scintillation proximity assay
test readout: Ki (nM)

smiles structure | target or test system | Ki (nM)
O=C(C1CCC1)N(Cc1ccccc1C(F)(F)F)[C@H]1CCNC1 | Sodium-dependent serotonin transporter (Homo sapiens) | 187

a: CC(C)c1ccccc1C(=O)N(CC1CCCC1)[C@H]1CCNC1
b: O=C(c1ccccc1Cl)N(CC1CCC1)[C@H]1CCNC1
c: CC(C)c1ccccc1C(=O)N(CC1CCC1)[C@@H]1CCNC1
Query: Could you please sort these 3 entries by Ki from high to low? # respond with the labels, arranged in the requested order
Response: c, a, b

P: O=C(c1ccccc1Oc1ccccc1)N(CC1CCC1)[C@@H]1CCNC1
Q: CSc1ccccc1C(=O)N(C1CCCC1)[C@H]1CCNC1
R: CCCN(C(=O)c1ccccc1C(C)C)[C@H]1CCNC1
S: CCSc1ccccc1C(=O)N(CC1CCC1)[C@H]1CCNC1
T: O=C(c1ccccc1Oc1ccccc1)N(CC1CCC1)[C@H]1CCNC1
Query: Please give the order of these compounds when sorted by Ki, largest value leading. Answer by listing the labels in the order asked for.
Response: R, P, S, T, Q

P: O=C(c1ccccc1C(F)(F)F)N(CC1CCC1)[C@H]1CCNC1
Q: Cc1ccccc1C(=O)N(CC1CCC1)[C@H]1CCNC1
R: CC(C)N(C(=O)c1ccccc1C(F)(F)F)[C@H]1CCNC1
Query: # desc sort on Ki across 3 compounds Sort the labels as requested; that list is your answer.
Response: R, P, Q
(R: 457 nM, P: 224 nM, Q: 118 nM)

---

Target: Sodium-dependent serotonin transporter (Homo sapiens)
Test: Displacement of [3H]citalopram from human recombinant SERT expressed in HEK293 cells by scintillation proximity assay
test readout: Ki (nM)

The cases that follow already have their Ki on record.
smiles structure | test readout | unit name | quantitative readout
O=C(c1ccccc1C(F)(F)F)N(c1ccccc1)[C@H]1CCNC1 | Ki | nM | 113
O=C(c1ccccc1C1CCCC1)N(CC1CCC1)[C@H]1CCNC1 | Ki | nM | 802
CC(C)c1ccccc1C(=O)N(CC1CC1)[C@H]1CCNC1 | Ki | nM | 2870

P: O=C(c1ccccc1C(F)(F)F)N(C1CCC1)[C@H]1CCNC1
Q: CCN(C(=O)c1ccccc1Oc1ccccc1)[C@H]1CCNC1
Query: Could you determine which record has the numerically smaller Ki? Candidates: P and Q Return value: the label identifying the chosen record.
Response: P
(P: 210 nM, Q: 1610 nM)

A: CC(C)c1ccccc1C(=O)N(C1CCC1)[C@H]1CCNC1
B: O=C(c1ccccc1Oc1ccccc1)N(C1CCC1)[C@H]1CCNC1
C: O=C(c1ccccc1C(F)(F)F)N(CC1CCC1)[C@@H]1CCNC1
Query: # ascending order, key=Ki Give me the labels in the order the question wants.
Response: B, A, C

---

Molecular target: UniProtKB Q01959
Assay: Displacement of radioligand from human recombinant DAT expressed in HEK293 cells by scintillation proximity assay
Ki reference

Below are worked cases with known answers.
smiles structure | Ki
CSc1ccccc1C(=O)N(C1CCC1)[C@H]1CCNC1 | > 10 µM
CC(C)c1ccccc1C(=O)N(C1CCCC1)[C@H]1CCNC1 | > 10 µM
O=C(c1ccccc1C(F)(F)F)N(CC1CCC1)[C@@H]1CCNC1 | 3.96 µM
CN(C(=O)c1ccccc1Oc1ccccc1)[C@H]1CCNC1 | > 3.16 µM
O=C(c1ccccc1C(F)(F)F)N(C1CCC1)[C@H]1CCNC1 | > 10 µM
CC(C)N(C(=O)c1ccccc1C(F)(F)F)[C@H]1CCNC1 | > 10 µM
O=C(c1ccccc1C1CCCC1)N(CC1CCC1)[C@H]1CCNC1 | 3.72 µM
O=C(c1ccccc1Oc1ccccc1)N(CC1CCC1)[C@H]1CCNC1 | > 10 µM
CCN(C(=O)c1ccccc1Oc1ccccc1)[C@H]1CCNC1 | 3.57 µM
Cc1ccccc1C(=O)N(CC1CCC1)[C@H]1CCNC1 | 2.34 µM

Query: What does the data say about its Ki? Entry: CCCN(C(=O)c1ccccc1C(C)C)[C@H]1CCNC1
Response: > 10 µM

---

Recorded below: IC50, system Voltage-gated inwardly rectifying potassium channel KCNH2 (Homo sapiens, UniProt Q12809).
Answer with a number only, understood to be in µM.

smiles structure | quantitative readout
CC(C)C(=O)N(Cc1ccccc1-c1ccccc1)[C@H]1CCNC1 | 3.02
CC(C)CN(C(=O)c1ccccc1-c1ccccc1)[C@H]1CCNC1 | 1.44

Proceed to the following item.
Query: I am curious: what IC50 value has been reported for CCSc1ccccc1C(=O)N(CC1CCC1)[C@H]1CCNC1 ?
Response: 7.57

---

Target: Sodium-dependent dopamine transporter (Homo sapiens, UniProt Q01959)
Sequence (Q01959 whole entry): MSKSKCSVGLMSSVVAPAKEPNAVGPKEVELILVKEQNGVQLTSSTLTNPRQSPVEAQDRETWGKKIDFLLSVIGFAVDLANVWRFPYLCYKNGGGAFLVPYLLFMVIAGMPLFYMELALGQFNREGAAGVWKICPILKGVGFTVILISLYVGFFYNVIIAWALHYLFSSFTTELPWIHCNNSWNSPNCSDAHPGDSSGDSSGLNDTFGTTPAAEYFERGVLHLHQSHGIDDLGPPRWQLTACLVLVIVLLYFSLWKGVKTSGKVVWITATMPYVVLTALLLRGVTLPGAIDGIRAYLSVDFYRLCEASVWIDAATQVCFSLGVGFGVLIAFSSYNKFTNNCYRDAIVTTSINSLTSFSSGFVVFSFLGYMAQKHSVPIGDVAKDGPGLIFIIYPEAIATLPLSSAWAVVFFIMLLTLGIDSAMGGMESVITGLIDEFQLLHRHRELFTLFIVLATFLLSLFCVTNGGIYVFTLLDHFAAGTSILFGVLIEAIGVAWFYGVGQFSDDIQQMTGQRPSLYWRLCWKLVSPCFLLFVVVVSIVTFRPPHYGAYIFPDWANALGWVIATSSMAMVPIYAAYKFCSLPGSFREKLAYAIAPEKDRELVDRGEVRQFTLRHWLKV
Assay: Displacement of radioligand from human recombinant DAT expressed in HEK293 cells by scintillation proximity assay
pKi: −log10 of the molar value.
test readout: pKi

Example entries begin here.
smiles structure | pKi
O=C(c1ccccc1Oc1ccccc1)N(CC1CCC1)[C@@H]1CCNC1 | 5.39
CSc1ccccc1C(=O)N(c1ccccc1)[C@H]1CCNC1 | 5.46
CSc1ccccc1C(=O)N(CC1CCC1)[C@@H]1CCNC1 | 5.46
CC(C)c1ccccc1C(=O)N(CC1CCC1)[C@H]1CCNC1 | 5.69
O=C(c1ccccc1C(F)(F)F)N(c1ccccc1)[C@H]1CCNC1 | 5.50

P: CSc1ccccc1C(=O)N(CC1CCC1)[C@H]1CCNC1
Q: O=C(c1ccccc1Cl)N(CC1CCC1)[C@H]1CCNC1
Query: Lab note: check whether P or Q has the lower measured pKi. Lab note: record the label of whichever item you select.
Response: P

1: CCOc1ccccc1C(=O)N(CC1CCC1)[C@H]1CCNC1
2: CSc1ccccc1C(=O)N(C1CCCC1)[C@H]1CCNC1
Query: Larger number for pKi: 1 , or 2 ? Write down the label attached to your selection.
Response: 1
(1: 5.58, 2: 5.32)

---

Experiment: Intrinsic clearance in human liver microsomes
Assay type: ADME, Microsome
test readout: microsomal CLint

Query: I am curious: what microsomal CLint value has been reported for O=C(c1ccccc1C1CCCC1)N(CC1CCC1)[C@H]1CCNC1 ?
Response: 60 µL/min/mg

Query: Also check CSc1ccccc1C(=O)N(C1CCC1)[C@H]1CCNC1
Response: < 7 µL/min/mg

Query: Thanks! And O=C(c1ccccc1C(F)(F)F)N(CC1CCC1)[C@H]1CCNC1 ?
Response: < 7 µL/min/mg

Query: Now try CC(C)c1ccccc1C(=O)N(CC1CCC1)[C@H]1CCNC1 .
Response: < 9 µL/min/mg

Query: Moving on to the next compound: O=C(c1ccccc1C(F)(F)F)N(c1ccccc1)[C@H]1CCNC1
Response: < 7 µL/min/mg

---

Target: hERG (KCNH2) (Homo sapiens, UniProt Q12809)
Sequence (Q12809 whole entry): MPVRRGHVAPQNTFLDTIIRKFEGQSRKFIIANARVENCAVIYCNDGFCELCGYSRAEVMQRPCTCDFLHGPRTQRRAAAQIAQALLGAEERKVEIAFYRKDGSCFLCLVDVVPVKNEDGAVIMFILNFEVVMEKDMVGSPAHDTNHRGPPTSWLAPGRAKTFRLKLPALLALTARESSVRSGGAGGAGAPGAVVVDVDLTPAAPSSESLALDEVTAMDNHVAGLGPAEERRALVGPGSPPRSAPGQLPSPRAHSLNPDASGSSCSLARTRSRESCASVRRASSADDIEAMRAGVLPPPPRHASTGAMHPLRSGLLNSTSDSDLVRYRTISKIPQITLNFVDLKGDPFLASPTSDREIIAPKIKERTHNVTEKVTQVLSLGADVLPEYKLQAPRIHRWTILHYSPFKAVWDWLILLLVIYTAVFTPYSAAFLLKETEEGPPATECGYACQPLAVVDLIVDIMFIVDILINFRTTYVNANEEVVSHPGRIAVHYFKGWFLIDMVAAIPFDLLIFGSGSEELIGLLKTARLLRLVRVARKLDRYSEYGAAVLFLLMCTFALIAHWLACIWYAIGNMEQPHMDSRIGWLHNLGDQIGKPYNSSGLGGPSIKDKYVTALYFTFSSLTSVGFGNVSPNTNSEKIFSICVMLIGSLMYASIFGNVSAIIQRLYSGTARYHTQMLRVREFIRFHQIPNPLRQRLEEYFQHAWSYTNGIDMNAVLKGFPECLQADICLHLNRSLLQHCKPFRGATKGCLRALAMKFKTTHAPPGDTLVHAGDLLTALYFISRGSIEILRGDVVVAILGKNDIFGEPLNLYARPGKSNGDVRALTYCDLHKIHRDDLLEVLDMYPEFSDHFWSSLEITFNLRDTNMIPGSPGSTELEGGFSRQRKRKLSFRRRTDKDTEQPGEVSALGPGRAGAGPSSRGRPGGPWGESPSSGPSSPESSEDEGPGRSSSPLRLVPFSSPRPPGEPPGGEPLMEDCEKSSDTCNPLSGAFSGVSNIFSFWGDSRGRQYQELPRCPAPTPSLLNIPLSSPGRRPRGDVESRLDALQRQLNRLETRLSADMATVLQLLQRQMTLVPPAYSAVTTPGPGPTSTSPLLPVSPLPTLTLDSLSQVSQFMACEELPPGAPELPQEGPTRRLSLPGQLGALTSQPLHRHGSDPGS
Test: Displacement of [3H]dofetilide from human ERG at 10 uM
Details: probe [3H]dofetilide
test readout: inhibition at 10 µM (%)
Provide the reading as a plain figure in %.

Query: Form field - read-out: inhibition at 10 µM; system: hERG (KCNH2) (Homo sapiens, UniProt Q12809); submitted item: O=C(c1ccccc1C(F)(F)F)N(CC1CCC1)[C@H]1CCNC1
Response: 48

---

Molecular target: Sodium-dependent serotonin transporter (Homo sapiens, UniProt P31645)
Sequence (P31645 whole entry): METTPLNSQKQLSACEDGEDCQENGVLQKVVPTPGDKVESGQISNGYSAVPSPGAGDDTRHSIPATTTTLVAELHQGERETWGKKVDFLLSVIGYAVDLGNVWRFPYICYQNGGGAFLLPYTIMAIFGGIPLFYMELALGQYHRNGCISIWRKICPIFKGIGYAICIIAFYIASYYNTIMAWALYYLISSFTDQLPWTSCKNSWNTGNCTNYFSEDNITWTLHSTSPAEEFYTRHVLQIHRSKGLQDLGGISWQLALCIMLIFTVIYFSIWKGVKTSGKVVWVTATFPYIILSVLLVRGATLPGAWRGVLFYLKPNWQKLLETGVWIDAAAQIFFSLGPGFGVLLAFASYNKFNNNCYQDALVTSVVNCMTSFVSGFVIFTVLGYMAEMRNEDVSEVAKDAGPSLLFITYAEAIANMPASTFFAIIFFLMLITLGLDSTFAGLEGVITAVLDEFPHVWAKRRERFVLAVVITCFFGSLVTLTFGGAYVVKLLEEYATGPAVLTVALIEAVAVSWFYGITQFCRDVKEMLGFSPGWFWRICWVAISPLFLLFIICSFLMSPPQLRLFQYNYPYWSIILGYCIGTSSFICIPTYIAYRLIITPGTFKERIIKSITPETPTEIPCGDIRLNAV
Experiment: Displacement of [3H]citalopram from human recombinant SERT expressed in HEK293 cells by scintillation proximity assay
test readout: Ki (nM)

The following compounds have reported results that may help.
smiles structure | Ki / nM
CSc1ccccc1C(=O)N(C1CCC1)[C@H]1CCNC1 | 62
O=C(c1ccccc1C(F)(F)F)N(CC1CCCC1)[C@H]1CCNC1 | 109
CCCN(C(=O)c1ccccc1SC)[C@H]1CCNC1 | 1090
CSc1ccccc1C(=O)N(CC1CCC1)[C@@H]1CCNC1 | 1080
O=C(c1ccccc1Oc1ccccc1)N(c1ccccc1)[C@H]1CCNC1 | 68

a: CCc1ccccc1C(=O)N(CC1CCC1)[C@H]1CCNC1
b: CCOc1ccccc1C(=O)N(CC1CCC1)[C@H]1CCNC1
c: CC(C)CN(C(=O)c1ccccc1Oc1ccccc1)[C@H]1CCNC1
Query: Please list the entries, largest Ki first. Lab note: record answer as labels in requested order.
Response: b, a, c

a: CSc1ccccc1C(=O)N(CC1CCC1)[C@H]1CCNC1
b: CC(C)c1ccccc1C(=O)N(CC1CCC1)[C@H]1CCNC1
c: CSc1ccccc1C(=O)N(C1CCCCC1)[C@H]1CCNC1
Query: Sequence the entries by Ki, beginning with the highest number. Give me the labels in the order the question wants.
Response: b, a, c
(b: 857 nM, a: 179 nM, c: 16 nM)
